# assayExplanation: Cmax in normal weight human at 236 mg infused over 30 mins
# Assay type: ADME, organism-based
# Parameters: dose 236 mg
# runParameters: in vivo, iv
endpoint: Cmax (ng/mL)
Numeric answer only, unit ng/mL assumed.

Task: Looking for the measured Cmax of `CCCCCCCCCC(=O)N[C@@H](Cc1c[nH]c2ccccc12)C(=O)N[C@H](CC(N)=O)C(=O)N[C@@H](CC(=O)O)C(=O)N[C@@H]1C(=O)NCC(=O)N[C@@H](CCCN)C(=O)N[C@@H](CC(=O)O)C(=O)N[C@H](C)C(=O)N[C@@H](CC(=O)O)C(=O)NCC(=O)N[C@H](CO)C(=O)N[C@@H]([C@H](C)CC(=O)O)C(=O)N[C@@H](CC(=O)c2ccccc2N)C(=O)O[C@@H]1C` , can you help?
Result: 42300
